experimental.target: Protein farnesyltransferase (Homo sapiens, UniProt P49354+P49356)
assay.notes: Inhibition of FTase
value.kind: pIC50
As a rule, pIC50 stands for the negative log10 of the concentration, concentration in M.

// returns reported pIC50 for input Cn1cncc1C(OCc1ccc(C#N)cc1NC(=O)c1ccccc1)c1ccc(C#N)cc1 (centres undefined) 5.30

Note, next up: COc1cccc(-c2cc(C(=O)O)ccc2COC(c2ccc(C#N)cc2)c2cncn2C)c1 (centres undefined) 4.08

Next record, please: COc1cccc(-c2cc(C#N)ccc2COC(c2ccc(Cl)cc2)c2cncn2C)c1 (centres undefined) 5.69

Input COCc1cccc(-c2cc(C#N)ccc2COC(c2ccc(C#N)cc2)c2cncn2C)c1 (centres undefined) 6.72

Repeat with Cc1ccc(-c2cc(C#N)ccc2COC(c2ccc(C#N)cc2)c2cncn2C)cc1 (centres undefined) 5.95

Next record, please: Cn1cncc1C(OCc1ccc(C#N)cc1-c1ccc2c(c1)OCO2)c1ccc(C#N)cc1 (centres undefined) 6.06

Same thing, different molecule: COCC(=O)Nc1ccc(COC(c2ccc(C#N)cc2)c2cncn2C)c(-c2cccc(OC)c2)c1 (centres undefined) 4.95

Try this molecule too: COc1ccc(-c2cc(C#N)ccc2COC(c2ccc(C#N)cc2)c2cncn2C)cc1 (centres undefined) 6.01

Another molecule to look at: CCOc1cccc(-c2cc(Cl)ccc2COC(c2ccc(C#N)cc2)c2cncn2C)c1 (centres undefined) 5.95

Record: Cn1cncc1C(OCc1ccc(Cl)cc1-c1cccc(Cl)c1)c1ccc(C#N)cc1 (centres undefined) 6.09

Next record, please: Cn1cncc1C(OCc1ccc(C#N)cc1C(=O)Nc1cccc(Cl)c1)c1ccc(C#N)cc1 (centres undefined) 6.12

Please answer likewise for Cc1ncc(C(OCc2ccc(C#N)cc2-c2ccc3c(c2)OCO3)c2ccc(C#N)cc2)n1C (centres undefined) 5.79

Field entry: Cn1cncc1C(OCc1ccc(C#N)cc1-c1cccc2cccnc12)c1ccc(C#N)cc1 (centres undefined) 5.28

Moving on to Cn1cncc1C(OCc1ccc(C#N)cc1-c1cccc(Cl)c1)c1ccc(C#N)cc1 (centres undefined) 6.06

And for COc1cccc(-c2cc(NS(C)(=O)=O)ccc2COC(c2ccc(C#N)cc2)c2cncn2C)c1 (centres undefined) ? 4.45
